system: MS2 coat protein; assay: apparent KD of MS2 coat protein; designed switch direction (-1 OFF switch, 1 ON switch): -1; higher = weaker reporter binding; details: Eterna round: R95; input ligand: microRNA oligo, concentration not stated
sequences and their reported apparent KD of MS2 coat protein

SEQUENCE_CHAIN: GUUAAGGUAGGAUAUACGAUAAUAGAGGGUAGAUAUAUAACACAUGAGGAUCACCCAUGUAGAAGGACCAAUUG [Mat - Exclusion 2 - Mod of my Tesla design - D58] (puzzle: Exclusion 2)
apparent KD of MS2 coat protein [nM]: 41.2

SEQUENCE_CHAIN: AGUAUGCGUGUCAGGAUAUCAAUGGCUCUACCCAAUGAGAAGGGACAUGAGGAUCACCCAUGUAUGAGCCUAAA [Zatelaveus] (puzzle: Brourd's mod of Exclusion 4)
apparent KD of MS2 coat protein [nM]: 14.1

SEQUENCE_CHAIN: GAAGAGACAGGAUAUACAUGAGGAUCACCCAUGUGAGUAAGGUAGAGGCGGAGGAGAUGUAGAAGGGUCAAAGA [JR_Exclu3_Sub016] (puzzle: Exclusion 3)
apparent KD of MS2 coat protein [nM]: 35.6

---

system: MS2 coat protein; assay: apparent KD of MS2 coat protein; designed switch direction (-1 OFF switch, 1 ON switch): -1; higher = weaker reporter binding; settings: input ligand: none
Each item that follows carries a reported apparent KD of MS2 coat protein.
PROPERTY_MEASURED: apparent KD of MS2 coat protein (nM)

SEQUENCE_CHAIN: UGUUGUCGCGCAGGAUAUGAGGAUCACCCAUAUCAGGAUAUCGAAAGAGAAUUUCUGAGGAUCACCCAGAAGGGCGGGACAACU [pwkr exNG2 2xF5 2xFMN.34] (Eterna round: R96, puzzle: Exclusion NG 2)
ASSAY_VALUE: 42.9

SEQUENCE_CHAIN: CCUUUGUCAGGAUAUCGUGCAUACAACGAAAGUUCUAUGUGCGAGAAGGGACAUGAGGAUCACCCAUGUUACGG [Omei Ex4 A3] (Eterna round: R97, puzzle: Exclusion 4)
ASSAY_VALUE: 368

SEQUENCE_CHAIN: UCUGGAGCAGGAUAUAUAUGACGUGCUUCGGCACGAAGGUCACAUGAGGAUCACCCAUGUAGAAGGGCUCCAGA [E2/9-D2] (Eterna round: R97, puzzle: Exclusion 2)
ASSAY_VALUE: 43.6

---

# apparent KD of MS2 coat protein values compiled below
system: MS2 coat protein; experiment: apparent KD of MS2 coat protein; designed switch direction (-1 OFF switch, 1 ON switch): -1; higher = weaker reporter binding; conditions: input ligand: FMN 200 uM

SEQUENCE_CHAIN: CACCUACAUGAGGAUCACCCAUGUCAGGAUAUCUUUGCUAAUAUGAAUAGAUGCGUAAAGAGAAGGGACAUUUC [EX1 C.8] (Eterna round: R97, puzzle: Exclusion 1)
apparent KD of MS2 coat protein (nM): 27
--
SEQUENCE_CHAIN: UUAAAUCAUGUAGGAUAUGCAUAGCGAAGCUAUGCAGAAGGACAUGAGGAUCACCCAUGUGCUUGCGUCCGCGUACGGAUGCUA [Mat - Exclusion NG 1 - Mod of JL - D67] (Eterna round: R96, puzzle: Exclusion NG 1)
apparent KD of MS2 coat protein (nM): 423
--
SEQUENCE_CHAIN: UUAAUUAAUUAAUUAUAAGAUCAACAUGAGGAUCACCCAUGUGAGGAUAUCAGCUCGAUUAGAGCUGAGAAGGCACAAAUAAUU [ExNG3/16-B1] (Eterna round: R96, puzzle: Exclusion NG 3)
apparent KD of MS2 coat protein (nM): 147
--
SEQUENCE_CHAIN: AAUUUACAUGAGGAUCACCCAUGUGAGGAUAUAUAAAUAUAUAUGUUAUUGUAUGUUUGUAGAAGGCGCGUGAU [JR_Exc1_Sub031] (Eterna round: R97, puzzle: Exclusion 1)
apparent KD of MS2 coat protein (nM): 145
--
SEQUENCE_CHAIN: AGUACUGACACGAAAGUGUUAGUACAAUAAGCUUGUGAAACAUGAGGAUCACCCAUGUCCUCAUAAGCUCGUCUUAU [salish99_TOv2_r3_017] (Eterna round: R96, puzzle: Sensor v3, turn-off variant 2)
apparent KD of MS2 coat protein (nM): 15.9
